Tested on: NCI-H1648
Test: relative viability (nuclei count vs DMSO), 5 days (fraction); higher = more cells survive
Details: first compound 20 µM
One threshold, 0.2, splits the recorded relative viability values: lower ones are 1, equal or higher ones are -1.

Answered examples (4):
[[record]]
compound = "Cc1csc(=NC2CCCCC2)n1/N=C/c1ccc(O)c(O)c1O [MIM1] + COc1cccc2cc(-c3nc([C@H]4CC[C@H](C(=O)O)CC4)n4ncnc(N)c34)[nH]c12 [OSI-027] (partner 0.5 µM)"
target_of_assay = "NCI-H1648"
cat = -1

[[record]]
compound = "Cc1csc(=NC2CCCCC2)n1/N=C/c1ccc(O)c(O)c1O [MIM1] + Nc1ncn([C@H]2C[C@H](O)[C@@H](CO)O2)c(=O)n1 [Decitabine] (partner 2 µM)"
target_of_assay = "NCI-H1648"
cat = -1

[[record]]
compound = "Cc1csc(=NC2CCCCC2)n1/N=C/c1ccc(O)c(O)c1O [MIM1] + CC(=O)Nc1cccc(-n2c(=O)n(C3CC3)c(=O)c3c(Nc4ccc(I)cc4F)n(C)c(=O)c(C)c32)c1 [Trametinib] (partner 0.02 µM)"
target_of_assay = "NCI-H1648"
cat = -1

[[record]]
compound = "Cc1csc(=NC2CCCCC2)n1/N=C/c1ccc(O)c(O)c1O [MIM1] + O=C(c1cc(Cc2n[nH]c(=O)c3ccccc23)ccc1F)N1CCN(C(=O)C2CC2)CC1 [Olaparib] (partner 8 µM)"
target_of_assay = "NCI-H1648"
cat = -1


q: Is 0.2 strictly greater than the compound's reported relative viability? compound: Cc1csc(=NC2CCCCC2)n1/N=C/c1ccc(O)c(O)c1O [MIM1] + Cc1cc(Nc2cc(N3CCN(C)CC3)nc(Sc3ccc(NC(=O)C4CC4)cc3)n2)n[nH]1 [Tozasertib] (partner 0.1 µM)
a: 1

----------
System: CAL-12T
Experiment: relative viability (nuclei count vs DMSO), 5 days (fraction); higher = more cells survive
Conditions: first compound 2.53 µM
A collection of compounds and their measured relative viability
// response body must contain only the number

Worked examples follow.
[[record]]
compound = "Nc1cccc2c1CN(C1CCC(=O)NC1=O)C2=O (stereo not given) [Lenalidomide] + Cc1cc(Nc2cc(N3CCN(C)CC3)nc(Sc3ccc(NC(=O)C4CC4)cc3)n2)n[nH]1 [Tozasertib] (partner 0.1 µM)"
target_of_assay = "CAL-12T"
observed_property = "relative viability"
val = 0.463

[[record]]
compound = "Nc1cccc2c1CN(C1CCC(=O)NC1=O)C2=O (stereo not given) [Lenalidomide] + N=C(N)NC(=N)NCCc1ccccc1 [Phenformin] (partner 250 µM)"
target_of_assay = "CAL-12T"
observed_property = "relative viability"
val = 0.639

[[record]]
compound = "Nc1cccc2c1CN(C1CCC(=O)NC1=O)C2=O (stereo not given) [Lenalidomide] + Nc1nc2[nH]cc(CCc3ccc(C(=O)N[C@@H](CCC(=O)O)C(=O)O)cc3)c2c(=O)[nH]1 [Pemetrexed] (partner 0.2 µM)"
target_of_assay = "CAL-12T"
observed_property = "relative viability"
val = 1.67

[[record]]
compound = "Nc1cccc2c1CN(C1CCC(=O)NC1=O)C2=O (stereo not given) [Lenalidomide] + CS(=O)(=O)CCNCc1ccc(-c2ccc3ncnc(Nc4ccc(OCc5cccc(F)c5)c(Cl)c4)c3c2)o1 [Lapatinib] (partner 2 µM)"
target_of_assay = "CAL-12T"
observed_property = "relative viability"
val = 0.801


Next compound, relative viability to be filled in.
q: Which relative viability value is on record for Nc1cccc2c1CN(C1CCC(=O)NC1=O)C2=O (stereo not given) [Lenalidomide] + CS(=O)(=O)N1CCN(Cc2cc3nc(-c4cccc5[nH]ncc45)nc(N4CCOCC4)c3s2)CC1 [Pictilisib] (partner 1 µM) ?
a: 0.561

----------
System: NCI-H3122
Assay: relative viability (nuclei count vs DMSO), 5 days (fraction); higher = more cells survive
Conditions: first compound 0.02 µM
One threshold, 0.4, splits the recorded relative viability values: lower ones are Yes, equal or higher ones are No.

[[record]]
molecule = "CCNC(=O)c1noc(-c2cc(C(C)C)c(O)cc2O)c1-c1ccc(CN2CCOCC2)cc1 [Luminespib] + N=C(N)NC(=N)NCCc1ccccc1 [Phenformin] (partner 250 µM)"
cat = "Yes"

[[record]]
molecule = "CN1CCN(CCOc2cc(OC3CCOCC3)c3c(Nc4c(Cl)ccc5c4OCO5)ncnc3c2)CC1 [Saracatinib] + C[C@@H](Oc1cc(-c2cnn(C3CCNCC3)c2)cnc1N)c1c(Cl)ccc(F)c1Cl [Crizotinib] (partner 1 µM)"
cat = "Yes"


q: Is 0.4 strictly greater than the molecule's reported relative viability? molecule: CCNC(=O)c1noc(-c2cc(C(C)C)c(O)cc2O)c1-c1ccc(CN2CCOCC2)cc1 [Luminespib] + NC(=O)Nc1cc(-c2cccc(F)c2)sc1C(=O)N[C@H]1CCCNC1 [AZD7762] (partner 0.2 µM)
a: No

q: Is 0.4 strictly greater than the molecule's reported relative viability? molecule: CN1CCN(CCOc2cc(OC3CCOCC3)c3c(Nc4c(Cl)ccc5c4OCO5)ncnc3c2)CC1 [Saracatinib] + CS(=O)(=O)CCNCc1ccc(-c2ccc3ncnc(Nc4ccc(OCc5cccc(F)c5)c(Cl)c4)c3c2)o1 [Lapatinib] (partner 2 µM)
a: No

q: Is 0.4 strictly greater than the molecule's reported relative viability? molecule: CN1CCN(CCOc2cc(OC3CCOCC3)c3c(Nc4c(Cl)ccc5c4OCO5)ncnc3c2)CC1 [Saracatinib] + N=C(N)NC(=N)NCCc1ccccc1 [Phenformin] (partner 250 µM)
a: Yes

q: Is 0.4 strictly greater than the molecule's reported relative viability? molecule: CN1CCN(CCOc2cc(OC3CCOCC3)c3c(Nc4c(Cl)ccc5c4OCO5)ncnc3c2)CC1 [Saracatinib] + Nc1nc2[nH]cc(CCc3ccc(C(=O)N[C@@H](CCC(=O)O)C(=O)O)cc3)c2c(=O)[nH]1 [Pemetrexed] (partner 0.2 µM)
a: Yes

----------
System: SW 1573
Assay: relative viability (nuclei count vs DMSO), 5 days (fraction); higher = more cells survive
Details: first compound 0.02 µM
A collection of compounds and their measured relative viability
// response body must contain only the number

[[record]]
compound = "CCNC(=O)c1noc(-c2cc(C(C)C)c(O)cc2O)c1-c1ccc(CN2CCOCC2)cc1 [Luminespib] + CC1(C)CCC(c2ccc(Cl)cc2)=C(CN2CCN(c3ccc(C(=O)NS(=O)(=O)c4ccc(N[C@H](CCN5CCOCC5)CSc5ccccc5)c(S(=O)(=O)C(F)(F)F)c4)cc3)CC2)C1 [Navitoclax] (partner 0.5 µM)"
target_of_assay = "SW 1573"
observed_property = "relative viability"
val = 0.803

[[record]]
compound = "CCNC(=O)c1noc(-c2cc(C(C)C)c(O)cc2O)c1-c1ccc(CN2CCOCC2)cc1 [Luminespib] + CS(=O)(=O)CCNCc1ccc(-c2ccc3ncnc(Nc4ccc(OCc5cccc(F)c5)c(Cl)c4)c3c2)o1 [Lapatinib] (partner 2 µM)"
target_of_assay = "SW 1573"
observed_property = "relative viability"
val = 0.711


Next compound, relative viability to be filled in.
q: Which relative viability value is on record for CN1CCN(CCOc2cc(OC3CCOCC3)c3c(Nc4c(Cl)ccc5c4OCO5)ncnc3c2)CC1 [Saracatinib] + O=C(c1cc(Cc2n[nH]c(=O)c3ccccc23)ccc1F)N1CCN(C(=O)C2CC2)CC1 [Olaparib] (partner 8 µM) ?
a: 0.502

----------
Test system: NCI-H1792
Experiment: relative viability (nuclei count vs DMSO), 5 days (fraction); higher = more cells survive
Conditions: first compound 2.53 µM
A collection of molecules and their measured relative viability
// response body must contain only the number

[[record]]
molecule = "Nc1cccc2c1CN(C1CCC(=O)NC1=O)C2=O (stereo not drawn) [Lenalidomide] + C[C@@H](Oc1cc(-c2cnn(C3CCNCC3)c2)cnc1N)c1c(Cl)ccc(F)c1Cl [Crizotinib] (partner 1 µM)"
observed_property = "relative viability"
val = 1.12

[[record]]
molecule = "Nc1cccc2c1CN(C1CCC(=O)NC1=O)C2=O (stereo not drawn) [Lenalidomide] + C[C@]1(O)C[C@@H](c2nc(-c3ccc4ccc(-c5ccccc5)nc4c3)c3c(N)nccn32)C1 [Linsitinib] (partner 1 µM)"
observed_property = "relative viability"
val = 0.509

[[record]]
molecule = "Nc1cccc2c1CN(C1CCC(=O)NC1=O)C2=O (stereo not drawn) [Lenalidomide] + Nc1nc2[nH]cc(CCc3ccc(C(=O)N[C@@H](CCC(=O)O)C(=O)O)cc3)c2c(=O)[nH]1 [Pemetrexed] (partner 0.2 µM)"
observed_property = "relative viability"
val = 1.08


q: Which relative viability value is on record for Nc1cccc2c1CN(C1CCC(=O)NC1=O)C2=O (stereo not drawn) [Lenalidomide] + NC(=O)Nc1cc(-c2cccc(F)c2)sc1C(=O)N[C@H]1CCCNC1 [AZD7762] (partner 0.2 µM) ?
a: 0.971

q: Which relative viability value is on record for Nc1cccc2c1CN(C1CCC(=O)NC1=O)C2=O (stereo not drawn) [Lenalidomide] + O=C(c1cc(Cc2n[nH]c(=O)c3ccccc23)ccc1F)N1CCN(C(=O)C2CC2)CC1 [Olaparib] (partner 8 µM) ?
a: 0.588

Data origin, for the record: the supplement of paper PMC10307832
